Ref: paper PMC9033141

- testedOn: CAXII (Homo sapiens, UniProt O43570)
- Construct: made in house; host or cells: E. coli
- Sequence (O43570 25-354): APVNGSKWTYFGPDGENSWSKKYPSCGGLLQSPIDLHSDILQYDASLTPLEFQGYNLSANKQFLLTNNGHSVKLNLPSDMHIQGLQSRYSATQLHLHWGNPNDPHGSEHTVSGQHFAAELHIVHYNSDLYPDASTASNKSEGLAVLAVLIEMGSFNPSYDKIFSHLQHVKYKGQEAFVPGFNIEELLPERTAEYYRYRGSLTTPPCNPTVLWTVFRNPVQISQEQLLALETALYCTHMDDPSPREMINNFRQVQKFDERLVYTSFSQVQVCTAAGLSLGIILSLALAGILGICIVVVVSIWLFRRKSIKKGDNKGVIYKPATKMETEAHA
- assayText: biochemical
- Assay type: binding
- conditionsUsed: FTSA, pH 7.0, 37 °C; read-out: Observed Dissociation Constant (Kd_obs), CAXII
readoutLabel: Kd (µM)
Please reply with the bare figure in µM and do not write the unit itself.

molecule	endpointUnit	Kd
CCOC(=O)c1sc(N(CCC(=O)O)c2ccc(S(N)(=O)=O)cc2)nc1C [Compound 31]	µM	3.8
NS(=O)(=O)c1ccc(NCC(CC(=O)NN=Cc2cccc(Cl)c2)C(=O)NN=Cc2cccc(Cl)c2)cc1 (centres unmarked) [Compound 11a]	µM	100
NS(=O)(=O)c1ccc(N(CCC(=O)O)c2nc(-c3ccc(Cl)cc3)c(Cl)s2)cc1 [Compound 36]	µM	0.12
Cn1c(CC(CNc2ccc(S(N)(=O)=O)cc2Cl)c2n[nH]c(=S)n2C)n[nH]c1=S (centres unmarked) [Compound 24b]	µM	1.7

INPUT: What Kd appears in the records for this molecule with CAXII (Homo sapiens, UniProt O43570)? NS(=O)(=O)c1ccc(NCC(Cc2n[nH]c(=S)n2-c2ccccc2)c2n[nH]c(=S)n2-c2ccccc2)c(Cl)c1 (centres unmarked) [Compound 25b]
OUTPUT: 0.63

INPUT: What Kd appears in the records for this molecule with CAXII (Homo sapiens, UniProt O43570)? COc1ccc(C=NNC(=O)CC(CNc2ccc(S(N)(=O)=O)cc2Cl)C(=O)NN=Cc2ccc(OC)cc2)cc1 (centres unmarked) [Compound 14b]
OUTPUT: 10

INPUT: What Kd appears in the records for this molecule with CAXII (Homo sapiens, UniProt O43570)? NS(=O)(=O)c1ccc(NCC(CC(=O)NN=Cc2ccccc2)C(=O)NN=Cc2ccccc2)c(Cl)c1 (centres unmarked) [Compound 6b]
OUTPUT: 7.9

###

- testedOn: UniProt:Q8N1Q1
- Sequence (Q8N1Q1 whole entry): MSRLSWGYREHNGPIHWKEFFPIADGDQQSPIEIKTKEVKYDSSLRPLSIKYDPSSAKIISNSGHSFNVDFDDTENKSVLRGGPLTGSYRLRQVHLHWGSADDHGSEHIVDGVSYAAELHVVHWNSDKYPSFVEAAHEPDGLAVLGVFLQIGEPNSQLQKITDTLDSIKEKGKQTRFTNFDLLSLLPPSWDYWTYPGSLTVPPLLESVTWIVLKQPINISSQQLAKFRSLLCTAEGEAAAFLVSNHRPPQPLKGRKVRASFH
- assayText: biochemical
- conditionsUsed: Observed Dissociation Constant (Kd_obs), FTSA, pH 7.0, 37 °C
Below, each of the compounds is paired with its reported Kd value.
Please reply with the bare figure in µM and do not write the unit itself.

For orientation, consider the following solved cases.
compound	readoutLabel	recordedMeasurement
NS(=O)(=O)c1ccc(NCC(CC(=O)NN=Cc2ccc([N+](=O)[O-])cc2)C(=O)NN=Cc2ccc([N+](=O)[O-])cc2)c(Cl)c1 (stereo not drawn) [Compound 17b]	Kd	1.4
Cc1ccc(C)n1NC(=O)CC(CNc1ccc(S(N)(=O)=O)cc1)C(=O)Nn1c(C)ccc1C (stereo not drawn) [Compound 19a]	Kd	4

INPUT: What Kd appears in the records for this compound with UniProt:Q8N1Q1? NNC(=O)CC(CNc1ccc(S(N)(=O)=O)cc1)C(=O)NN (stereo not drawn) [Compound 2a]
OUTPUT: 130

###

Below, each of the molecules is paired with its reported pKd value.
- testedOn: CAXII (Homo sapiens, UniProt O43570)
- Construct: made in house; host or cells: E. coli
- assayText: biochemical
- Assay type: binding
- conditionsUsed: FTSA, pH 7.0, 37 °C; read-out: Observed Dissociation Constant (Kd_obs), CAXII
Bear in mind: pKd is minus log10 of a mol/L concentration; give just that figure.

For orientation, consider the following solved cases.
molecule	readoutLabel	recordedMeasurement
NS(=O)(=O)c1ccc(NCC(CC(=O)NN=Cc2cccc(O)c2)C(=O)NN=Cc2cccc(O)c2)cc1 (stereo not shown) [Compound 8a]	pKd	4.48
NS(=O)(=O)c1ccc(NCC(CC(=O)NN=Cc2ccc(O)cc2)C(=O)NN=Cc2ccc(O)cc2)c(Cl)c1 (stereo not shown) [Compound 9b]	pKd	4.85
NS(=O)(=O)c1ccc(NCC(CC(=O)NN=Cc2ccc(Cl)cc2)C(=O)NN=Cc2ccc(Cl)cc2)cc1 (stereo not shown) [Compound 12a]	pKd	4.18
CCOC(=O)c1sc(N(CCC(=O)OC)c2ccc(S(N)(=O)=O)cc2)nc1C [Compound 32]	pKd	5.11
CC(=NNC(=O)CC(CNc1ccc(S(N)(=O)=O)cc1Cl)C(=O)NN=C(C)c1ccccc1)c1ccccc1 (stereo not shown) [Compound 5b]	pKd	5.17
CNC(=S)NNC(=O)CC(CNc1ccc(S(N)(=O)=O)cc1)C(=O)NNC(=S)NC (stereo not shown) [Compound 22a]	pKd	4.96

INPUT: What pKd appears in the records for this molecule with CAXII (Homo sapiens, UniProt O43570)? NS(=O)(=O)c1ccc(NCC(CC(=O)NN=Cc2ccc(F)cc2)C(=O)NN=Cc2ccc(F)cc2)cc1 (stereo not shown) [Compound 13a]
OUTPUT: 4.64

INPUT: What pKd appears in the records for this molecule with CAXII (Homo sapiens, UniProt O43570)? Cc1csc(N(CCC(=O)NN=Cc2ccccc2)c2ccc(S(N)(=O)=O)cc2)n1 [Compound 30]
OUTPUT: 3.96

INPUT: What pKd appears in the records for this molecule with CAXII (Homo sapiens, UniProt O43570)? NS(=O)(=O)c1ccc(NCC(CC(=O)NN=Cc2ccc(F)cc2)C(=O)NN=Cc2ccc(F)cc2)c(Cl)c1 (stereo not shown) [Compound 13b]
OUTPUT: 4.64
